Target: hSCN3A sodium channels (Homo sapiens)
Construct: expressed in transfected cells
Test: hSCN3A electrophysiology, whole-cell patch-clamp or PatchXpress 7000, estimated IC-50 (Table B)
Assay type: cell-based
Settings: estimated IC-50; hSCN3A cells, whole-cell patch-clamp or PatchXpress 7000; read-out: SCN3A EIC-50
READOUT_KIND: IC50 (nM)
Give bare numbers, in nM.

Examples with their reported IC50 follow.
- O=C(NCc1ccc(C(F)(F)F)c(Cl)c1)c1ccc(S(=O)(=O)Nc2ncns2)c(F)c1: 40
- O=C(NCc1ccc(F)c(F)c1)c1ccc(S(=O)(=O)Nc2nccs2)c(F)c1: 160
- O=C(NCc1cccc(C(F)(F)F)c1)c1ccc(S(=O)(=O)Nc2ncc(Cl)s2)c(Cl)c1: 2260
- COc1cc(OC(F)(F)F)ccc1CNC(=O)c1ccc(S(=O)(=O)Nc2nccs2)cc1: 140
- Cc1ccccc1CNC(=O)c1ccc(S(=O)(=O)Nc2nccs2)cc1: 1220

Attention now shifts to the item below.
*Q* Could you share which IC50 value was measured for `O=C(NCc1cccc(OC(F)(F)F)c1)c1ccc(S(=O)(=O)Nc2ncc(Cl)s2)cc1` ?
*A* 170

###

Target: hSCN3A sodium channels (Homo sapiens, UniProt Q9NY46)
Construct: expressed in transfected cells
Sequence (Q9NY46 whole entry): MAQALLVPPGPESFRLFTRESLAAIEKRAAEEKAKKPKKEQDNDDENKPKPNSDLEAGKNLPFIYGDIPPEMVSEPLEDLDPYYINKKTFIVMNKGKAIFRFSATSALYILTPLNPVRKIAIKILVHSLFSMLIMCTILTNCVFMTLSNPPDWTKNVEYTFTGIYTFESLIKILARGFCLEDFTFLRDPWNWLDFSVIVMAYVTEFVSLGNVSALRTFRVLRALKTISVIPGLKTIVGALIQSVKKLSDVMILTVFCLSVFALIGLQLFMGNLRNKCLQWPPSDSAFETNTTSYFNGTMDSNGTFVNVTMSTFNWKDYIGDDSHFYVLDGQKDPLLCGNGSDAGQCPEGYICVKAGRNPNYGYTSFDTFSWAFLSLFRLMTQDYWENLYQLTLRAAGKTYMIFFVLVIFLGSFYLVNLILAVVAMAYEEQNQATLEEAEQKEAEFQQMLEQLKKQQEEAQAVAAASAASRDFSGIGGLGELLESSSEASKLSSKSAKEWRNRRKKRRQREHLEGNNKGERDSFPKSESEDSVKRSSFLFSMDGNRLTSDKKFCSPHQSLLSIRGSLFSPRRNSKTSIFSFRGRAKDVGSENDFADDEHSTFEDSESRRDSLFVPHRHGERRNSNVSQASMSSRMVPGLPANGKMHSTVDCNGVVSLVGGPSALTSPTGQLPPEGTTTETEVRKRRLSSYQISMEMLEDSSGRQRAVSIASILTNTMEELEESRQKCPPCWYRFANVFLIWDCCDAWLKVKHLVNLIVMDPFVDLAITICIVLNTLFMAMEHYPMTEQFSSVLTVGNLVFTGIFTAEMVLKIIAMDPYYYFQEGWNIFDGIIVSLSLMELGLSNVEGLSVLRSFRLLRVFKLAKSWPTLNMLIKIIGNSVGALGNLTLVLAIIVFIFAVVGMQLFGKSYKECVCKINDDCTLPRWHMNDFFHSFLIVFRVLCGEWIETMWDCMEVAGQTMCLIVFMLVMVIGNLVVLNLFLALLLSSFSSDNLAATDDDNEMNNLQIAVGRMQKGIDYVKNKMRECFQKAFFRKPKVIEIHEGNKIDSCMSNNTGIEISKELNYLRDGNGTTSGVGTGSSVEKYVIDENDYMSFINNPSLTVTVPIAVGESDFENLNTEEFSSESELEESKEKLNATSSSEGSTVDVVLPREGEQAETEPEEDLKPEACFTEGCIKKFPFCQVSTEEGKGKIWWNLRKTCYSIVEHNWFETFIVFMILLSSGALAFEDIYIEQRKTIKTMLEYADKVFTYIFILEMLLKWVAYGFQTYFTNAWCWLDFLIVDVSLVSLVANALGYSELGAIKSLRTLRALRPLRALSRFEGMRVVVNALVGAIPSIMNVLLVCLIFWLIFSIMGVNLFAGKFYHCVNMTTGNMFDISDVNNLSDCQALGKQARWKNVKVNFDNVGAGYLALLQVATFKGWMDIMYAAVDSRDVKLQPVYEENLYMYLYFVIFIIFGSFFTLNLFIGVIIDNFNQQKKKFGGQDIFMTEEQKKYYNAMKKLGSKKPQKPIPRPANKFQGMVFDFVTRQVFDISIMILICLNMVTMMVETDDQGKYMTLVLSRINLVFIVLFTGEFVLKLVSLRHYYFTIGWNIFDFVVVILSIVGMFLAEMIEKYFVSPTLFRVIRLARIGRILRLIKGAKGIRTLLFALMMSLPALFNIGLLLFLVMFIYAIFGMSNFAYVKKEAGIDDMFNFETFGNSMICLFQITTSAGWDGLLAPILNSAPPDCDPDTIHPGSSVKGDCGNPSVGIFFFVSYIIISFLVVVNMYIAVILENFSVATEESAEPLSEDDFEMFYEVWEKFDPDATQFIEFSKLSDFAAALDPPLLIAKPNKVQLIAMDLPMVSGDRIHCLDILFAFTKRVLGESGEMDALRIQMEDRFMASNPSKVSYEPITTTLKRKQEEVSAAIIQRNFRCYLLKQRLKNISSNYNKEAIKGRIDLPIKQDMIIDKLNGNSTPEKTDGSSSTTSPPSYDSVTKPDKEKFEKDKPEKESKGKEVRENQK
Assay: hSCN3A electrophysiology, whole-cell patch-clamp or PatchXpress 7000, estimated IC-50 (Table B)
Type: cell-based
Settings: estimated IC-50; hSCN3A cells, whole-cell patch-clamp or PatchXpress 7000; read-out: SCN3A EIC-50
READOUT_KIND: pIC50
Give bare numbers, as −log10 of the molar value.

Examples with their reported pIC50 follow.
- O=C(NCc1ccc(F)c(F)c1)c1ccc(S(=O)(=O)Nc2ncc(Cl)s2)cc1: 6.82
- O=C(NCc1ccc(C(F)(F)F)cc1)c1ccc(S(=O)(=O)Nc2nccs2)cc1F: 6.34
- O=C(NCc1cccc(C(F)(F)F)c1)c1ccc(S(=O)(=O)Nc2nccs2)cc1: 6.59
- O=C(NCc1ccc(OC(F)(F)F)c(F)c1)c1ccc(S(=O)(=O)Nc2ncns2)c(F)c1: 6.85

Provide reported pIC50 for each item, in the same order as listed.
1. COc1cccc(CC2CCCN(C(=O)c3ccc(S(=O)(=O)Nc4nccs4)cc3)C2)c1 (centres unmarked)
2. CC(CNC(=O)c1ccc(S(=O)(=O)Nc2nccs2)cc1)c1ccc(Cl)cc1 (centres unmarked)
3. Cc1nn(C)c(C)c1NS(=O)(=O)c1ccc(C(=O)NCc2ccc(C(F)(F)F)cc2)cc1
4. Cc1ccccc1O[C@H]1CCN(C(=O)c2ccc(S(=O)(=O)Nc3nccs3)cc2)C1
5. O=C(NCc1ccc(-n2cccn2)cc1)c1ccc(S(=O)(=O)Nc2nccs2)cc1
6. COc1cccc(C2CCCN(C(=O)c3ccc(S(=O)(=O)Nc4nccs4)cc3)C2)c1 (centres unmarked)
7. O=C(NCc1ccc(C(F)(F)F)cc1)c1ccc(S(=O)(=O)Nc2nccs2)nc1

*A*
1: 5.95; 2: 5.94; 3: 4.63; 4: 5.52; 5: 5.82; 6: 5.54; 7: 6.68

Provide reported pIC50 for each item, in the same order as listed.
1. Cc1nnc(NS(=O)(=O)c2ccc(C(=O)NCc3ccc(C(F)(F)F)cc3)cc2)s1
2. O=C(c1ccc(S(=O)(=O)Nc2nccs2)cc1)N1CCC(O)(c2ccc(Cl)cc2)CC1

*A*
1: 5.59; 2: 5.51

###

Target: hSCN3A sodium channels (Homo sapiens, UniProt Q9NY46)
Construct: expressed in transfected cells
Test: hSCN3A electrophysiology, whole-cell patch-clamp or PatchXpress 7000, estimated IC-50 (Table B)
Type: cell-based
Conditions: estimated IC-50; hSCN3A cells, whole-cell patch-clamp or PatchXpress 7000; read-out: SCN3A EIC-50
I'd appreciate it if you could supply IC50 values for the items below.

- Cc1nsc(NS(=O)(=O)c2ccc(C(=O)NCc3ccc(C(F)(F)F)cc3)cc2)n1: 1110 nM
- O=C(NC(c1cccc(C(F)(F)F)c1F)C1CC1)c1ccc(S(=O)(=O)Nc2nccs2)cc1 (centres unmarked): 1290 nM
- N#Cc1cc(CNC(=O)c2ccc(S(=O)(=O)Nc3nccs3)cc2)ccc1F: 1410 nM
- O=C(NCc1ccc(Cl)c(F)c1)c1ccc(S(=O)(=O)Nc2nccs2)c(Cl)c1: 900 nM
- O=C(NCc1ccc(Cl)cc1)c1ccc(S(=O)(=O)Nc2nccs2)cc1: 430 nM
- O=C(NCc1ccc(Cl)c(C(F)(F)F)c1)c1ccc(S(=O)(=O)Nc2nccs2)cc1: 30 nM
- O=C(NCc1ccc(C(F)(F)F)cc1)c1ccc(S(=O)(=O)Nc2nc(C(F)(F)F)cs2)cc1: 2530 nM
- O=C(Nc1nccc2cccnc12)c1ccc(S(=O)(=O)Nc2nccs2)cc1: > 100 nM
- Cc1ccc(C2(O)CCN(C(=O)c3ccc(S(=O)(=O)Nc4nccs4)cc3)CC2)cc1: 2110 nM
- O=C(NC1Cc2ccccc2C1)c1ccc(S(=O)(=O)Nc2nccs2)cc1: 2670 nM

Provide reported IC50 for each item, in the same order as listed.
1. O=C(c1ccc(S(=O)(=O)Nc2nccs2)cc1)N1CCCC(Oc2ccccc2)C1 (centres unmarked)
2. O=C(NC1(Cc2ccc(Cl)cc2)CC1)c1ccc(S(=O)(=O)Nc2nccs2)cc1
3. O=C(NCc1ccc(C(F)(F)F)cc1F)c1ccc(S(=O)(=O)Nc2ncc(Cl)s2)cc1

*A*
1: 2190 nM; 2: 2280 nM; 3: 120 nM

Provide reported IC50 for each item, in the same order as listed.
1. O=C(NCc1ccc(Oc2ccccc2)cc1)c1ccc(S(=O)(=O)Nc2nccs2)cc1
2. O=C(c1ccc(S(=O)(=O)Nc2nccs2)cc1)N1CCCC(Cc2cccc(F)c2)C1 (centres unmarked)
3. O=C(NCc1cccc(-n2cccn2)c1)c1ccc(S(=O)(=O)Nc2nccs2)cc1
4. O=C(NCc1ccc(C(F)(F)F)c(Cl)c1)c1ccc(S(=O)(=O)Nc2nccs2)cc1
5. O=C(c1ccc(S(=O)(=O)Nc2nccs2)cc1)N1CCCC(Cc2ccc(F)cc2)C1 (centres unmarked)

*A*
1: 40 nM; 2: 920 nM; 3: 1690 nM; 4: 30 nM; 5: 980 nM

Provide reported IC50 for each item, in the same order as listed.
1. O=C(NCc1ccc(C(F)(F)F)cc1)c1ccc(S(=O)(=O)Nc2nc[nH]n2)cc1
2. O=C(c1ccc(S(=O)(=O)Nc2nccs2)cc1)N1CCCCC1c1ccccc1 (centres unmarked)

*A*
1. 9950 nM
2. 2970 nM

###

I'd appreciate it if you could supply inhibition at 10 µM values for the items below.
Target: hSCN3A sodium channels (Homo sapiens)
Construct: expressed in transfected cells
Experiment: hSCN3A electrophysiology, Ionworks Quattro automated platform (Table C)
Type: cell-based
Conditions: 10 μM compound, read-out: SCN3A % INHIB HTS IWQ 10 μM
Numbers only, in %.

Provide reported inhibition at 10 µM for each item, in the same order as listed.
1. O=C(c1ccc(S(=O)(=O)Nc2nccs2)cc1)N1CCCC1c1ccccc1 (stereo not shown) [Example 205]
2. Cc1ccc(C)c(C2CCCN2C(=O)c2ccc(S(=O)(=O)Nc3nccs3)cc2)c1 (stereo not shown) [Example 202]
3. O=C(NCCc1ccc(F)cc1)c1ccc(S(=O)(=O)Nc2nccs2)cc1 [Example 102]
4. O=C(c1ccc(S(=O)(=O)Nc2nccs2)cc1)N1CCOCC(Cc2ccccc2)C1 (stereo not shown) [Example 259]
5. CC(C)N(Cc1ccccc1)C(=O)c1ccc(S(=O)(=O)Nc2nccs2)cc1 [Example 187]

*A*
27.3
13.7
37.2
19.6
4.2

Provide reported inhibition at 10 µM for each item, in the same order as listed.
1. O=C(N[C@H](CO)Cc1ccccc1)c1ccc(S(=O)(=O)Nc2nccs2)cc1 [Example 182]
2. O=C(c1ccc(S(=O)(=O)Nc2nccs2)cc1)N1CCCC(Cc2ncccn2)C1 (stereo not shown) [Example 237]

*A*
[4.83, 17.6]

###

Biological target: hSCN3A sodium channels (Homo sapiens, UniProt Q9NY46)
Construct: expressed in transfected cells
Assay: hSCN3A electrophysiology, Ionworks Quattro automated platform (Table C)
Format: cell-based
Conditions: 10 μM compound, read-out: SCN3A % INHIB HTS IWQ 10 μM
I'd appreciate it if you could supply inhibition at 10 µM values for the items below.
One number for each entry, in %.

- Cc1ccccc1O[C@@H]1CCN(C(=O)c2ccc(S(=O)(=O)Nc3nccs3)cc2)C1 [Example 204]: 16.2
- O=C(c1ccc(S(=O)(=O)Nc2nccs2)cc1)N1CCOCC(Cc2ccc(F)cn2)C1 (stereo not drawn) [Example 216]: 6.67
- COc1cccc(CCNC(=O)c2ccc(S(=O)(=O)Nc3nccs3)cc2)c1 [Example 166]: 36.3
- COc1cccc(C2CCCCN2C(=O)c2ccc(S(=O)(=O)Nc3nccs3)cc2)c1 (stereo not drawn) [Example 201]: -0.98
- O=C(c1ccc(S(=O)(=O)Nc2nccs2)cc1)N1CCCCC1Cc1ccccn1 (stereo not drawn) [Example 244]: 21.9

Attention now shifts to the item below.
*Q* Could you share which inhibition at 10 µM value was measured for Cc1ccc(F)cc1CNC(=O)c1ccc(S(=O)(=O)Nc2nccs2)cc1 [Example 58] ?
*A* 49.7
